As shown below, each of these molecules has a reported composite z-score value.
target: Torsin-1A-interacting protein 1 (Homo sapiens); assay: LAP1 binders from COS7 cell lysate, primary screen, small-molecule microarray, 635/667 nm fluorescence (AID 1116); conditions: COS7-hLAP1 lysate binding, 635 nm fluorescence, higher = more signal
Could you respond with only the numeric value?

Item: CC(CCC(=O)OC[C@H]1O[C@H](C#Cc2ccccc2)C=C[C@@H]1Oc1ccc(C)cc1)=NOC(C)CN1CCCCc2nc(C)c(C)cc21 (some centres not stated) | composite z-score: -0.0043

Item: `CC(C)CON=C1C[C@@H](O)[C@@H](O)[C@@H]2[C@@H]3C(=O)N([C@@H](C)c4ccccc4)C(=O)[C@@H]3CC[C@@H]12` | composite z-score: 0.179

Item: O=C1CCCC=C1C(O)c1ccc([N+](=O)[O-])cc1 (configuration not stated) | composite z-score: 0.315

More entries:
Item: `O=C1[C@H]2[C@H]3[C@H](O)[C@H](O)CC(=NO[C@@H]4O[C@H](CO)[C@@H](O)[C@H](O)[C@H]4O)[C@@H]3CC[C@H]2C(=O)N1C1CCCCC1` | composite z-score: 0.0912

Item: `CC(C)=CCCC(C)=CCON=C1C[C@@H](O)[C@@H](O)[C@@H]2[C@@H]3C(=O)N(C4CCCCC4)C(=O)[C@@H]3CC[C@H]12` | composite z-score: -0.0853

Item: `C[C@@H]1CC[C@H]2C(=O)N3[C@@H](CC[C@@H](C)[C@@H]3c3ccc(Br)cc3)C(=O)N2[C@H]1c1ccc(Br)cc1` | composite z-score: 0.08

Item: `CCN1C(=O)[C@H]2[C@H]3[C@H](O)[C@H](O)CC(=NNC(=O)OCc4ccccc4)[C@H]3CC[C@H]2C1=O` | composite z-score: 0.185
